Some compounds, each annotated with its measured max response.
Tested on: CRL-7250
method: Cytotoxic Profiling of Annotated Libraries Using Quantitative High-Throughput Screening (AID 1296008); note: % is set by controls: 0 for no effect and ±100 for the full control effect; nearly all actives have a fitted effect of over 60% in size
condition_parameters: Five cell lines viability, CellTiter-Glo ATP luminescence, 48-72 h; active compounds read low
Protocol: Cell-based phenotypic screening is a commonly used approach to discover biological pathways, novel drug targets, chemical probes and high-quality hit-to-lead molecules. […] A pintool (Kalypsys) was used to transfer 23 nL of compound solution to the 1536-well assay plates. […] Plates were left at room temperature for 10 min before imaging the ATP-coupled luminescence using a ViewLux microplate imager (PerkinElmer, Waltham, MA).
Results filed as inconclusive are left out.
The reply should be a number in %, with the unit left off.

Reference set (5 entries):
CC1=C(C(=O)O)/C(=C\CO[C@@H]2O[C@H](CO)[C@@H](O)[C@H](O)[C@H]2O)C(OC(=O)/C=C/c2ccc(O)cc2)C1 (some centres not stated) : -18
C=C1CCC2C(C)(C(=O)O)CCCC2(C)C1CCC(C)CC(=O)O (configuration not stated) : 1.5
NC(=O)[C@H]1CCS[C@@H]2C[C@]3(CCCN3C(=O)Cc3ccc(NC(=O)COc4ccc(Cl)cc4Cl)cc3)C(=O)N12 : -14.3
C[C@@H]1O[C@@H](OC[C@H]2O[C@@H](Oc3cc(O)cc4c3C(=O)C(O)(Cc3ccc(O)cc3)O4)[C@H](O)[C@@H](O)[C@@H]2O)[C@H](O)[C@H](O)[C@H]1O (some centres not stated) : 3.09
OC[C@H]1O[C@@H](OCCc2ccc(O)cc2)[C@H](O[C@@H]2OC[C@](O)(CO)[C@H]2O)[C@@H](O)[C@@H]1O : -6.14

Hey, CRL-7250 data for C/C1=C\CC[C@]2(C)O[C@@H]2[C@H](O)[C@H](C(C)C)[C@H](OC(=O)/C=C/c2ccccc2)C1 : max response came out at -51

Hey, CRL-7250 data for Cn1c(=O)cc(N2CCCC(N)C2)n(Cc2cc(F)ccc2C#N)c1=O (configuration not stated) : max response came out at 3.15

###

method: Primary qHTS for inhibitors of nuclear receptor binding SET domain protein 2 (NSD2) in an isogenic RCH-ACV NSD2 p.E1099K mutant (9B) (AID 1645876); note: nearly all actives have a fitted effect of over 70% in size
condition_parameters: RCH-ACV (leukaemia line) NSD2 E1099K (9B) viability, CellTiter-Glo, 72 h; series mostly up to 44.9 µM
Records with an inconclusive call do not appear. Activity calls are given as the source filed them. The call rests on the fitted dose curve; in most records, active means well fitted inhibition curve with a large enough effect; inconclusive means small, poorly fitted or top-dose-only effect; inactive means flat fitted curve, though single readings scatter.
Respond with a class label; see active, inactive

CCC(C)/C=C(C)/C=C/c1cc2c(cn1)C(=O)C(C)(OC(C)=O)C(O)=C2Cl (configuration not stated) : inactive

What is the recorded call for this compound in the test? CCC(C)C(=O)OC1CC(O)C23C4OCC5(C(O)CC2C1(C)C(O)O4)C3C(=O)CC1(C)C(c2ccoc2)CC2OC215 (configuration not stated) active

###

Test system: Hek293T
method: Primary qHTS to identify gynecologic anti-cancer compounds using libraries of approved drugs and bioactive compounds (AID 1345084); note: nearly all actives have a fitted effect of over 55% in size
condition_parameters: Gynecologic cancer cell panel viability, ATPlite luminescence, 48 h, control line for the selectivity index; series mostly up to 57.5 µM
Results filed as inconclusive are left out. Calls of active or inactive are those of the source. Calls come from the whole dose curve; as a rule, active = well fitted cell-killing curve with a large enough effect; inconclusive = small, poorly fitted or top-dose-only effect, or effect the other way; inactive = flat fitted curve, though single readings scatter.
Respond with a class label; see label 1 (active), label 0 (inactive)

Field: example entries. Status: answers known.
C/C=C/C=C/[C@@H]1O[C@](O)([C@H](CC)C(=O)NC/C=C/C=C(\C)[C@@H](OC)[C@@H](C)C2OC(/C=C/C=C/C=C(\C)C(=O)c3c(O)cc[nH]c3=O)[C@H](O)[C@@H]2O)[C@H](O)[C@H](O)C1(C)C (some centres undefined) : label 0
CC(C)=CCC/C(C)=C/CO[C@@H]1O[C@H](CO)[C@@H](O)[C@H](O)[C@H]1O : label 0

What is the recorded call for this compound in the test? C/C=C/C=C/C(O)=C1\C(O)=C(C)C(=O)[C@@]2(C)OC(=O)[C@@](C)(NC(=O)/C=C/C(=O)O)[C@@H]12 label 0

What is the recorded call for this compound in the test? CCCCNc1ncc2c(-c3ccc(CN4CCN(C)CC4)cc3)cn(C3CCC(O)CC3)c2n1 (centres undefined) label 0

What is the recorded call for this compound in the test? c1cn2cc(-c3ccc4cn[nH]c4c3)nc(Nc3ccc(N4CCOCC4)cc3)c2n1 label 1

What is the recorded call for this compound in the test? COc1ccc(C2=N[C@@H](c3ccc(Cl)cc3)[C@@H](c3ccc(Cl)cc3)N2C(=O)N2CCNC(=O)C2)c(OC(C)C)c1 label 0

What is the recorded call for this compound in the test? C=C1C(OC(=O)/C(C)=C\C)[C@@]23CCC4[C@@](C)(CCC[C@@]4(C)C(=O)O)C2CC[C@H]1C3OC(C)=O (some centres undefined) label 0

What is the recorded call for this compound in the test? C=CC1(C)C=C2CCC3C(C)(C)C(O[C@@H]4O[C@@H](CO)[C@H](O)[C@H]4O)CCC3(C)C2CC1O[C@@H]1O[C@H](C)[C@H](O)[C@H](O)[C@H]1O (some centres undefined) label 0

Data origin: PubChem BioAssay (NCATS)
